Molecular target: T1, Baboon EL-C2 tag (baboon, UniProt Q9Y5X9 21-500 (human entry), limits assumed)
T1 construct: used as heparin extract of transfected HEK293F cells; also called baboon EL heparin extract
T1 chain: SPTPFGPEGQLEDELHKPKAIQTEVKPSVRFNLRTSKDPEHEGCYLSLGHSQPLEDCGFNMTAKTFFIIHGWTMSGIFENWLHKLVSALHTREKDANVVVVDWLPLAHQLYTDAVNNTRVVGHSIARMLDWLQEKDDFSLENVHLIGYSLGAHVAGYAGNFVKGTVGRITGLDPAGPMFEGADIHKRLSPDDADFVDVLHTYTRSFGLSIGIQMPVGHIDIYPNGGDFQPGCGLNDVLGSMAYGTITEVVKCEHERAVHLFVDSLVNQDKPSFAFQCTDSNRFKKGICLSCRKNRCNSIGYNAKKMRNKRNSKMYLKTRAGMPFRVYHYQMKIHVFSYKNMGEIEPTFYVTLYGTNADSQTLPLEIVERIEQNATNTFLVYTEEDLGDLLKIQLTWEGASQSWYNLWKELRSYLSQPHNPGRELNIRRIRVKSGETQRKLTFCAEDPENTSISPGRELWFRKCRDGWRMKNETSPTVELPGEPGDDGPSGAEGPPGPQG
Assay: Biacore SPR; EL heparin extract captured by anti-C2-tag antibody on CM5, antibody as analyte, bivalent fit
This listing pairs binders with measured kon.
Write it as a number; the unit M⁻¹ s⁻¹ goes unstated.

• 8F5 antibody (antibody, IgG2a, V domains shown) VH: QVTLKESGPGILQPSQTLSLTCSFSGFSLSTSNMGVGWIRQPSGKGLEWLAHIWWNDYKYYNTALKSRLTISKDTSNNQVFLKIASLDTADTATYYCARIGGGTPLDYWGQGTSLTVSS VL: DIQMAQSPSSLSASLGGKVTITCKASQDIHTYIAWYQHKPGKGPRLLMLYTSTLQPGIPSRFSGSGSGRDYSFSISNLEPEDIATYYCLQYDDLLWTFGGGTKLEIK = 140000
• 12B10 antibody (antibody, IgG2a, V domains shown) VH: QVTLKESGPGILKPSQTLSLTCSFSGFSLSTSGMGVGWIRQPSGKGLEWLAHIWWNDEKYYNPSLKSQLTISKDTSRNQVFLKITSVDTADTATYYCARSYDGSPFPSWGQGTLVTVSA VL: DIQMTQSPSSLSASLGGKVTITCKASQDINKYIAWFQHKPGKGPRLLMAYPFTLQPGIPSRFSGNGSGRDYSFSISNLEPEDIATYYCLQYDNLLWTFGGGTRLEIK = 350000

Please turn your attention to the following entry.
Would you mind telling me what kon value was observed for 41H8 antibody (antibody, IgG1, V domains shown) VH: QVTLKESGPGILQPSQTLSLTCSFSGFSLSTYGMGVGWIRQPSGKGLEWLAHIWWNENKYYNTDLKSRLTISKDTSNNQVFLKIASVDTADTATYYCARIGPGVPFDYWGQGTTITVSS VL: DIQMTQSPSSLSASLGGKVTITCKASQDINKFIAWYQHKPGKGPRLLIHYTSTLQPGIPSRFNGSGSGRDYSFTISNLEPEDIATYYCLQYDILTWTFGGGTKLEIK ?
110000
